The reported numbers originate from patent US20120315267A1.

Target Under Test: T1, human Gro-gamma (human, UniProt P19876 35-107)
T1 sequence (looked up): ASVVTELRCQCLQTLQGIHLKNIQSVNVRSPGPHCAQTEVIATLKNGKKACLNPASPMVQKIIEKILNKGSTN
Experimental Details: cell-based or functional assay
Measured Parameter: FLIPR IC50

Here is how some binders turned out for FLIPR IC50.
>  <Binder>
2X352.3 (antibody, IgG1, V domains shown) VH: QIQLVQSGPELKKPGETVKISCKASGYTLTYYGIHWVTQTPGKGLNWMGWINTNTGEPTYVEEFKGRFAFSLETSASTAYLQITDLKNEDTATYFCAKATYDGYSDYWGQGTTLTVSS VL: DIQMTQSPASLSVSVGESVTITCRASENIYSNLAWYQQKQGKSPQLLVYDATNLAHGVPSRFSGSGSGTQFSLRINSLQSEDFGSYYCQHFWGTPLTFGAGTRLELK

>  <FLIPR IC50>
7.43 µg/mL

$$$$
>  <Binder>
7A12.1F10 (antibody, IgG1, V domains shown) VH: QVQLQQSGAELVKPGASVKLSCKASGYIFTSNDINWVRQRPEQGLEWIGWIFPGDNSTKFNEKFRDKATLTTDKSSSTAYMQLSGLTSEDSAVYFCATFYGSTYGYYFDYWGQGTTLTVSS VL: DIVMTQSHKFMSTSVGDRVSITCKASQDVGTAVAWYQQKPGQSPKLLIYWTDTRHTGVPDRFTGSGSGTDFTLTISNVESEDCVDYFCHQYNNYPLTFGAGTKLELK

>  <FLIPR IC50>
> 200 µg/mL

$$$$
>  <Binder>
1L351.17 (antibody, IgG2b, V domains shown) VH: QAYLQQSGAELVRPGASVKMSCKASGYTFTSYNMHWVKQTPRQGLEWIGAIYPGNGDTSYNQKFKGKATLTVDKSSSTAYMQLSSLTSEDSAVYFCARDLYYFDYWGQGTTLTVSS VL: ENVLTQSPAIMSAFPGEKVTMTCRASSSVSSTYLHWYQQKSGASPKLWIYSTSDLASGVPARFSGSGSGTSYSLTISSVEAEDAATYYCQQFSGYPWTFGGGTKLEIK

>  <FLIPR IC50>
3.17 µg/mL

$$$$
>  <Binder>
2B12.1E1 (antibody, IgG2c, V domains shown) VH: EVQLQQSGPELVKPGASVKISCKASGYTFTDYYMNWVKQSHGKSLEWIGDINPNNGNTNYNQKFKGKATLTVDKSSSTAYMEFRSLTSEDSAVYYCAGLGRIFDYWGQGTTLTVSS VL: ENVLTQSPAIMSASPGEKVTMTCRASSSVSSTFLHWYQQKSGASPKLWIYSTSDLASGVPARFSGSGSGTSYSLTISSVEAEDAATYYCQQYSGYPWTFGGGTKLEIK

>  <FLIPR IC50>
> 67 µg/mL

$$$$
>  <Binder>
9D12.1H4 (antibody, IgG1, V domains shown) VH: EVQLQQSGPELVKPGASVRMSCKASGNTVIDYNIHWVKQSQGKSLEWIGYINPNSGGTGYNEKFKDKATLTINKSSSTAHMDLRSLTSEDSAVYYCTRFDFWGQGTTLTVSS VL: DVLMTQTPLSLPVSLGDQASISCRSTQSIVPVNGNTHLEWYLHKPGQSPKLLIYKVSNRFSGVPDRFSGSGSGTDFTLKISRVEAEDLGVYYCFQASHVPWTFGGGTKLEIK

>  <FLIPR IC50>
> 67 µg/mL

$$$$
>  <Binder>
1L132.23 (antibody, IgG1, V domains shown) VH: QVQLQQPGAELVKPGASVKVSCKASGYTFTNYWMHWVRQRPGQGLEWIGRIHPSDNDTNYNQKFKDKATLTVDKSSNTAYMQLSSLTSEDSAVYYCAIGVYDGFIGLWGQGTSVTVSS VL: DIQMTQSPASQSASLGESVTITCLASQTIGTWLAWYQQKPGKSPQLLIYAATRLADGVPSRFSGSGSGTKFSFKISSLQAEDFVSYYCQQLSSTPWTFGGGTKLEIK

>  <FLIPR IC50>
> 67 µg/mL

$$$$

Q: So what does the record say about FLIPR IC50 for 17D1.1D2 (antibody, IgG2c, V domains shown) VH: EVQLQQSGPELVKPGASVKISCKASGYTFTDYYMNWLRQSHGKSLEWIGDINPNNGGTNYNQKFKNKATLTVDKSSSTAYMELRSLTSEDSAVFYCAGLGRIFDYWGQGTTLTVSS VL: ENVLTQSPAIMSAFPGEKVTMTCRASSSVSSTYLHWYQQKSGASPKLWIYSTSDLASGVPARFSGSGSGTSYSLTISSVEAEDAATYYCQQFSGYPWTFGGGTKLEIK ?
Ans: 144 µg/mL

Q: So what does the record say about FLIPR IC50 for 2X810.3 (antibody, IgG1, V domains shown) VH: QIQLQQSGPEVVKPGASVKISCKASGYIFTDNYIDWVQQRPGQGLEWIGWIFPGSGNTKYNEKFKGKATLTVDTFSSTAYMQLSSLTSEDTAVYFCAREIDYDYDGFFDVWGAGTTVTVSS VL: DIVMTPSHTFMSTSVGDRVIITSKASQDVGSAVAWYQQKPGQSPTLLIYWASTRHTGVPDRFTGSGSGTDFTLTISNLQSEDLADYFCQQYSTYPLTFGAGTKLELK ?
Ans: > 67 µg/mL

Q: So what does the record say about FLIPR IC50 for 2X907.15 (antibody, IgG1, V domains shown) VH: EVKLVESGGGLVKPGGSLKLSCAASGFTFSDYYMYWVRQSPEKRLEWVATVSDVGSYTYYSGSVRGRFTISRDNAKNNLYLQMSSLQSEDTAIYYCSRDRTLDYWGQGTSVIVTS VL: QIVLTQSPAIMSASPGEKVTITCNASSSVSYMHWFQQKPGTSPKLWIYSTSNLASGVPARFSGSGSGTSYSLTISRMEAEDAATYYCHQRSSFPPTFGGGTKLEIK ?
Ans: > 67 µg/mL
